Origin of the recorded values: patent US20250179120A1

Assay Info: Evaluation of cell membrane permeability (MDCKII permeation test, Papp)
Assay type: in vitro ADME
Condition Notes: dog, MDCK, MDCKII cell layer, 10 μM in HBSS, apical to basal, 37° C.
Method: Evaluation of the cell membrane permeability of the cyclic peptide according to the embodiment of the present invention was carried out. […] Based on the calculation expression shown in Expression (1), a permeability coefficient Papp, which represents the membrane permeability, was calculated from each quantitative value. […]
Square brackets hold non-standard residues; d marks the D form. Peptide text beside a SMILES is read from it. Ala(4-thiazolyl) = N[C@@H](Cc1cscn1)C(=O)O; Phe(4-Cl) = N[C@@H](Cc1ccc(Cl)cc1)C(=O)O; Phe(4-F) = N[C@@H](Cc1ccc(F)cc1)C(=O)O; NMeF = CN[C@@H](Cc1ccccc1)C(=O)O; Tle = CC(C)(C)[C@H](N)C(=O)O; hSer = N[C@@H](CCO)C(=O)O; NMeA = CN[C@@H](C)C(=O)O; dNMeA = CN[C@H](C)C(=O)O
Property Measured: Papp A→B at 2 h, 10 μM

Request: Which measured Papp A→B at 2 h, 10 μM value corresponds to COCC[C@@H]1NC(=O)[C@H]2CCCN2C(=O)[C@H](Cc2ccccc2)N(C)C(=O)[C@H](Cc2ccc(Cl)cc2)NC(=O)[C@H](C(C)(C)C)NC(=O)[C@H](Cc2ccc(F)cc2)NC(=O)[C@H](C)N(C)C(=O)[C@@H](C)N(C)C(=O)[C@H](Cc2cscn2)NC(=O)[C@H](C)N(C)C1=O [Comparative Example 1, reference compound] (cyclo([Ala(4-thiazolyl)][dNMeA][NMeA][Phe(4-F)][Tle][Phe(4-Cl)][NMeF][dP][hSer](Me)[NMeA])) ?
Result: < 0.1 ×10⁻⁶ cm/s
